The measured values listed here are drawn from PubChem BioAssay (NCI).

system: SF-268 CNS; experiment: NCI-60 one-dose screen, 48 h (100 = growth as untreated, 0 = no growth, -100 = all killed); settings: 10 µM
This is part of a sample that, as a whole, favours compounds with a hit. Of some 83,000 tested, about 20% had one in any assay.
measured-property: growth (%)
Numbers only, in %.

Consider the worked cases shown below.
| compound | growth, % |
| --- | --- |
| Cc1cc(C)c2c(n1)sc1c(Nc3ccc(Cl)cc3)ncnc12 | 0.138 |
| COc1ccc(Cl)cc1-n1nnc(-c2nc3ccccc3[nH]2)c1N | 62.6 |
| CCCCCCc1cc(N=Nc2ccc(S(=O)(=O)Nc3cc(C)nc(C)n3)cc2)c(O)cc1O | 110 |
| COc1ccc(-c2nn(-c3cccc(NC(=O)c4cc(C(F)(F)F)cc(C(F)(F)F)c4)c3)cc2-c2ccncc2)cc1Cl | 72.6 |
| COc1ccc(C2=Nc3c(C)nn(-c4ccccc4)c3NC(c3ccc(Oc4ccnc5cc(Cl)ccc45)c(OC)c3)C2)cc1 (centres undefined) | 78.8 |

Below is a list of compounds. For each, state its recorded growth.
1. Cc1ccc(NC(=O)Nc2cccnc2)cc1NC(=O)Nc1cccnc1
2. N=C(N)c1ccc(-c2ccc(-c3cccs3)o2)cc1
3. COc1ccc2c(c1)N(CCO)C1=C(C(=O)OC1)C2c1ccc(OC)c(OC)c1 (centres undefined)
4. N#Cc1c(C#N)c(SSc2c(C#N)c(C#N)c(N)n2-c2ccccc2)n(-c2ccccc2)c1N
5. O=c1[nH]c2ccc(Cl)cc2c2ccccc12
6. CC(=O)N(C)c1ccc(Nc2ccc(Nc3ccc(N(C)C(C)=O)cc3)c3c2C(=O)c2ccccc2C3=O)cc1
7. CC/C(C)=C(\C)C(=O)O
8. CS(=O)(=O)Nc1cccc(-c2cc(-c3ccccc3Cl)c(C#N)c(N)n2)c1

A:
[96.8, 61.6, 54.3, 112, 79.4, 76.5, 105, 49.2]
